# System: Candida albicans
# protocol description: Antifungal activity against Candida albicans assessed as reduction in fungal cell viability incubated for 24 hrs by two fold serial dilution method
# Type: functional
outcome measure: MIC (µM)
Provide only the numeric value, understood in µM.

Ask: Which MIC is listed for `CCn1cc(-c2csc(N)n2)c(=O)c2cc(F)c(N3CCN(C/C(C)=N/O)CC3)cc21` ?
Reply: 72

Ask: Record: `CCn1cc(-c2csc(N)n2)c(=O)c2cc(F)c(N3CCN(CC(C)=O)CC3)cc21`
Reply: 575

Ask: Let us now turn to `CCn1cc(-c2csc(N)n2)c(=O)c2cc(N3CCN(C/C(=N/OC)c4ccc(Cl)cc4Cl)CC3)c(Cl)cc21`
Reply: 422

Ask: Also `CCn1cc(-c2csc(N)n2)c(=O)c2cc(F)c(N3CCN(C/C(C)=N/NC(N)=O)CC3)cc21` , if possible.
Reply: 526

Ask: What about this molecule? `CCn1cc(-c2csc(N)n2)c(=O)c2cc(N3CCN(C/C(=N/OC)c4ccc(F)cc4)CC3)c(Cl)cc21`
Reply: 231

Ask: For `CCn1cc(-c2csc(N)n2)c(=O)c2cc(F)c(N3CCN(C/C(C)=N/OC)CC3)cc21` then?
Reply: 70

Ask: Field entry: `CCn1cc(-c2csc(N)n2)c(=O)c2cc(N3CCN(C/C(=N/OC)c4ccc(Cl)cc4)CC3)c(Cl)cc21`
Reply: 448

Ask: Next molecule: `CCn1cc(-c2csc(N)n2)c(=O)c2cc(F)c(N3CCN(C/C(=N/OC)c4ccc(F)cc4)CC3)cc21`
Reply: 951

---

# protocol description: Cytotoxicity against human A549 cells assessed as cell viability upto 139.52 uM incubated for 24 hrs by MTT assay relative to control
# Assay type: cell-based
# test settings: read-out: Activity
outcome measure: viability at 24 h

Ask: Value lookup for viability at 24 h; key = `CCn1cc(-c2csc(N)n2)c(=O)c2cc(F)c(N3CCN(C/C(C)=N/OC)CC3)cc21`
Reply: > 75%

---

Assign MIC to each entry below.
# Tested on: Aspergillus fumigatus
# protocol description: Antifungal activity against Aspergillus fumigatus assessed as reduction in fungal cell viability incubated for 24 hrs by two fold serial dilution method
# Assay type: functional
Provide a numeric answer, followed by its unit.

Ask: # get_value(readout='MIC', item= OC(Cn1cncn1)(Cn1cncn1)c1ccc(F)cc1F [FLUCONAZOLE] )
Reply: 836 µM

Ask: What do you have for `CCO/N=C(\C)CN1CCN(c2cc3c(cc2F)c(=O)c(-c2csc(N)n2)cn3CC)CC1` ?
Reply: 542 µM

Ask: Same question for `CCn1cc(-c2csc(N)n2)c(=O)c2cc(F)c(N3CCN(C/C(=N/OC)c4ccc(Cl)cc4Cl)CC3)cc21` please.
Reply: 434 µM

Ask: Then what about the compound `CCn1cc(-c2csc(N)n2)c(=O)c2cc(F)c(N3CCN(C/C(=N/OC)c4ccc(F)cc4F)CC3)cc21` ?
Reply: 460 µM

Ask: Quick one: `CCn1cc(-c2csc(N)n2)c(=O)c2cc(F)c(N3CCN(C/C(C)=N/OC)CC3)cc21`
Reply: 35 µM

Ask: Likewise for `CCn1cc(-c2csc(N)n2)c(=O)c2cc(F)c(N3CCN(C/C(C)=N/NC(N)=O)CC3)cc21` ?
Reply: 263 µM

Ask: Now this one: `CCn1cc(-c2csc(N)n2)c(=O)c2cc(N3CCN(C/C(C)=N/O)CC3)c(Cl)cc21`
Reply: 278 µM

Ask: Cool, now `CCn1cc(-c2csc(N)n2)c(=O)c2cc(F)c(N3CCN(C/C(C)=N/OCc4ccc(Cl)cc4Cl)CC3)cc21`
Reply: 424 µM

Ask: Now the same for `CCn1cc(-c2csc(N)n2)c(=O)c2cc(F)c(N3CCN(C/C(=N/OC)c4ccc(Cl)cc4)CC3)cc21`
Reply: 461 µM

Ask: Same question for `CCn1cc(-c2csc(N)n2)c(=O)c2cc(N3CCN(C/C(=N/OC)c4ccc(Cl)cc4)CC3)c(Cl)cc21` please.
Reply: 448 µM

Ask: Likewise for `CCn1cc(-c2csc(N)n2)c(=O)c2cc(N3CCN(C/C(=N/OC)c4ccc(OC)cc4)CC3)c(Cl)cc21` ?
Reply: 451 µM

Ask: Also check `CCn1cc(-c2csc(N)n2)c(=O)c2cc(N3CCN(C/C(=N/OC)c4ccc(Cl)cc4Cl)CC3)c(Cl)cc21`
Reply: 422 µM

Ask: And then `CCn1cc(-c2csc(N)n2)c(=O)c2cc(F)c(N3CCN(C/C(=N/OC)c4ccc(OC)cc4)CC3)cc21` , what is it?
Reply: 465 µM

Ask: Next entry: `CCn1cc(-c2csc(N)n2)c(=O)c2cc(F)c(N3CCN(C/C(C)=N/O)CC3)cc21`
Reply: 288 µM

Ask: # iterate: `CCn1cc(-c2csc(N)n2)c(=O)c2cc(F)c(N3CCN(C/C(=N/OC)c4ccc(F)cc4)CC3)cc21`
Reply: 951 µM

Ask: Please answer likewise for `CCn1cc(-c2csc(N)n2)c(=O)c2cc(N3CCN(C/C(C)=N/OC)CC3)c(Cl)cc21`
Reply: 269 µM

Ask: Same again, this time with `CCn1cc(-c2csc(N)n2)c(=O)c2cc(N3CCN(C/C(=N/OC)c4ccc(F)cc4)CC3)c(Cl)cc21`
Reply: 29 µM

Ask: Now consider `CCn1cc(-c2csc(N)n2)c(=O)c2cc(F)c(N3CCN(CC(C)=O)CC3)cc21` and answer again.
Reply: 575 µM

---

# System: Staphylococcus aureus
# protocol description: Antibacterial activity against methicillin resistant Staphylococcus aureus N315 assessed as reduction in bacterial cell viability incubated for 24 hrs by two fold serial dilution method
# Assay type: functional
# test settings: N315, 24 h
outcome measure: MIC (µM)
Write down the numeric answer in µM and omit the unit.

Ask: Field request: MIC | item: `CCn1cc(-c2csc(N)n2)c(=O)c2cc(N3CCN(C/C(C)=N/OC)CC3)c(Cl)cc21`
Reply: 67

Ask: Entry `CCn1cc(-c2csc(N)n2)c(=O)c2cc(F)c(N3CCN(C/C(C)=N/OC)CC3)cc21` please
Reply: 9

Ask: Further, for `CCn1cc(-c2csc(N)n2)c(=O)c2cc(N3CCN(C/C(=N/OC)c4ccc(Cl)cc4)CC3)c(Cl)cc21` ?
Reply: 224

Ask: Queued: `CCn1cc(-c2csc(N)n2)c(=O)c2cc(N3CCN(C/C(=N/OC)c4ccc(F)cc4)CC3)c(Cl)cc21`
Reply: 14

Ask: Same again, this time with `CCn1cc(-c2csc(N)n2)c(=O)c2cc(F)c(N3CCN(C/C(C)=N/NC(N)=O)CC3)cc21`
Reply: 66

Ask: Another compound to look at: `CCn1cc(-c2csc(N)n2)c(=O)c2cc(F)c(N3CCN(C/C(=N/OC)c4ccc(Cl)cc4Cl)CC3)cc21`
Reply: 434

Ask: Do the same for `CCn1cc(-c2csc(N)n2)c(=O)c2cc(F)c(N3CCN(C/C(=N/OC)c4ccc(OC)cc4)CC3)cc21` please
Reply: 465

Ask: Consider next the compound `CCn1cc(-c2csc(N)n2)c(=O)c2cc(F)c(N3CCN(CC(C)=O)CC3)cc21` in the same way.
Reply: 72

Ask: `CCn1cc(-c2csc(N)n2)c(=O)c2cc(F)c(N3CCN(C/C(C)=N/OCc4ccc(Cl)cc4Cl)CC3)cc21` , same question.
Reply: 424

Ask: Same thing, different compound: `CCn1cc(-c2csc(N)n2)c(=O)c2cc(N3CCN(C/C(=N/OC)c4ccc(OC)cc4)CC3)c(Cl)cc21`
Reply: 451

Ask: And `CCn1cc(-c2csc(N)n2)c(=O)c2cc(F)c(N3CCN(C/C(=N/OC)c4ccc(F)cc4)CC3)cc21` ?
Reply: 238

Ask: Further, for `CCn1cc(-c2csc(N)n2)c(=O)c2cc(F)c(N3CCN(C/C(C)=N/O)CC3)cc21` ?
Reply: 72

Ask: Likewise for `CCn1cc(-c2csc(N)n2)c(=O)c2cc(N3CCN(C/C(C)=N/O)CC3)c(Cl)cc21` ?
Reply: 139

Ask: Next compound: `CCn1cc(C(=O)O)c(=O)c2cc(F)c(N3CCNCC3)cc21`
Reply: 25

Ask: Param item: `CCn1cc(-c2csc(N)n2)c(=O)c2cc(F)c(N3CCN(C/C(=N/OC)c4ccc(Cl)cc4)CC3)cc21`
Reply: 29

Ask: Next entry: `CCn1cc(-c2csc(N)n2)c(=O)c2cc(F)c(N3CCN(C/C(=N/OC)c4ccc(F)cc4F)CC3)cc21`
Reply: 230

Ask: Note, next up: `CCO/N=C(\C)CN1CCN(c2cc3c(cc2F)c(=O)c(-c2csc(N)n2)cn3CC)CC1`
Reply: 135

Ask: Same for `CCn1cc(-c2csc(N)n2)c(=O)c2cc(N3CCN(C/C(=N/OC)c4ccc(Cl)cc4Cl)CC3)c(Cl)cc21`
Reply: 211

Recorded values, source ChEMBL document CHEMBL4351006.
